B1: CPEB3 Ribozyme (parent)
chain: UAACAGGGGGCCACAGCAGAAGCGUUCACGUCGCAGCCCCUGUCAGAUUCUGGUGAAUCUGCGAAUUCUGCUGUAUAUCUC

Variants of: B1
test-protocol: self-cleavage, relative activity (ratio to wild type); higher = more cleavage; in vitro, sequencing
# cutoff 0.4 applies to self-cleavage; >= gives 1, < gives 0

# count of solved cases: 5
{"variant-identifier": "A64U C79A", "classification": 0}
{"variant-identifier": "G10U C40U", "classification": 0}
{"variant-identifier": "G61U A64U", "classification": 0}
{"variant-identifier": "U41G U58A", "classification": 0}
{"variant-identifier": "U26G U66C", "classification": 0}

Task item: Decide: is the reported value of self-cleavage for A20G A35U equal to or greater than 0.4?
Reply: 0

Task item: Consider next the variant U48A in the same way.
Reply: 1

Task item: Do the same for A21G U78A please
Reply: 1

Task item: Would you kindly repeat that for U49A U60C ?
Reply: 0

Task item: // next record A56G C59U
Reply: 1
